Measured IC50, listed per entry.
Target: recombinant EcTP enzyme (thymidine phosphorylase) (Escherichia coli)
Construct: purchased
Sequence (P07650 whole entry): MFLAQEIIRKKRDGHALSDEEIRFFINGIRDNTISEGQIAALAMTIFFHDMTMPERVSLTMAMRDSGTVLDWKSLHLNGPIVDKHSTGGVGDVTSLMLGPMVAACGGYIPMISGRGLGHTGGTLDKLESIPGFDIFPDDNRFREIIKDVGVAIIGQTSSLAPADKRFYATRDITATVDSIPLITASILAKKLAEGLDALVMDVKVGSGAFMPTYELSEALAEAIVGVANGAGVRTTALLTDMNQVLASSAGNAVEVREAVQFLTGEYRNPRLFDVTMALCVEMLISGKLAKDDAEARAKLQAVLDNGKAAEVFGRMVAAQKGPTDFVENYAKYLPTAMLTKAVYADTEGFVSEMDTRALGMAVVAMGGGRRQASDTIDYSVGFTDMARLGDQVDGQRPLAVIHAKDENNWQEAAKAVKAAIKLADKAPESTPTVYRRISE
Experiment: biochemical
Conditions: EcTP, thymidine substrate, absorbance at 290 nm, triplicate; read-out: IC50 ± SEM

>  <Compound>
CC1(C)C=CC2=C(O1)C(=O)c1ccccc1C2=O [Dehydro‐α‐lapachone (4), Dehydro‐α‐lapachone]

>  <Measurement Target>
recombinant EcTP enzyme (thymidine phosphorylase) (Escherichia coli)

>  <IC50 [µM]>
17.2

$$$$
>  <Compound>
CC(C)=C(C)[C@H]1C[C@]2(C)OC3=C(C(=O)c4ccccc4C3=O)[C@H]3[C@@H]2[C@@]12C(=O)c1ccccc1[C@@]3(O)C2=O

>  <Measurement Target>
recombinant EcTP enzyme (thymidine phosphorylase) (Escherichia coli)

>  <IC50 [µM]>
4.9

$$$$
>  <Compound>
CC1(C)CCC2=C(O1)C(=O)c1ccccc1C2=O

>  <Measurement Target>
recombinant EcTP enzyme (thymidine phosphorylase) (Escherichia coli)

>  <IC50 [µM]>
3.6

$$$$
>  <Compound>
CC(C)=CCC1=C(O)C(=O)c2ccccc2C1=O

>  <Measurement Target>
recombinant EcTP enzyme (thymidine phosphorylase) (Escherichia coli)

>  <IC50 [µM]>
2.3

$$$$
